# Test system: Bloodstream form of Trypanosoma brucei, strain Lister 427
# Assay Name: Trypanosoma brucei growth inhibition assay (CellTiter-Glo, 24 h)
# Format: cell-based
# Conditions: Trypanosoma brucei; T. Brucei Growth Inibition Assay, class symbols; read-out: T. Brucei GI EC50
pEC50: −log10 of the molar value.

{"Compound": "COc1ccc2nc(C(F)(F)F)n(CC(=O)N3CCC(O)C[C@H]3c3ncc(-c4cc5ccccc5nc4OC)[nH]3)c2c1 (stereo partly shown)", "Test Target": "Bloodstream form of Trypanosoma brucei, strain Lister 427", "pEC50": "> 7.00"}
{"Compound": "CCC(=O)CCCN1CCN(C(=O)Cc2c[nH]c3ccccc23)[C@H](c2ncc(-c3ccc4ccccc4c3)[nH]2)C1", "Test Target": "Bloodstream form of Trypanosoma brucei, strain Lister 427", "pEC50": "6.30 to 7.00"}
{"Compound": "Cc1[nH]c2ccccc2c1CC(=O)N1CCN(Cc2ccccc2)CC1c1ncc(-c2ccc3ccccc3c2)[nH]1 (stereo not shown)", "Test Target": "Bloodstream form of Trypanosoma brucei, strain Lister 427", "pEC50": "5.30 to 6.00"}
{"Compound": "COc1ccc2nc(C(F)(F)F)n(CC(=O)N3CC[C@H](N(C)C4CCOC4)C[C@H]3c3ncc(-c4cc5ccccc5nc4OC)[nH]3)c2c1 (stereo partly shown)", "Test Target": "Bloodstream form of Trypanosoma brucei, strain Lister 427", "pEC50": "> 7.00"}
{"Compound": "O=C(Cc1c[nH]c2ccc(O)cc12)N1CCN(Cc2ccccc2)CC1c1ncc(-c2ccc3ccccc3c2)[nH]1 (stereo not shown)", "Test Target": "Bloodstream form of Trypanosoma brucei, strain Lister 427", "pEC50": "5.30 to 6.00"}
{"Compound": "COc1ccc2c(CC(=O)N3CCN(CC4CCOC4)CC3c3ncc(-c4cc5ccccc5nc4OC)[nH]3)coc2c1 (stereo not shown)", "Test Target": "Bloodstream form of Trypanosoma brucei, strain Lister 427", "pEC50": "6.00 to 6.29"}
{"Compound": "COc1ccc2nc(C)n(CC(=O)N3CCN(Cc4cocn4)C[C@H]3c3ncc(-c4cc5ccccc5nc4OC)[nH]3)c2c1", "Test Target": "Bloodstream form of Trypanosoma brucei, strain Lister 427", "pEC50": "> 7.00"}

---

Recorded pEC50, one value per entry.
# Tested on: Bloodstream form of Trypanosoma brucei, strain Lister 427
# Assay Name: Trypanosoma brucei growth inhibition assay (CellTiter-Glo, 24 h)
# Format: cell-based
# Conditions: Trypanosoma brucei; T. Brucei Growth Inibition Assay, class symbols; read-out: T. Brucei GI EC50
pEC50: −log10 of the molar value.
Measured Attribute: pEC50

{"Compound": "COc1nc2ccccc2cc1-c1cnc([C@@H]2CCN(Cc3ccn(C)n3)CCN2C(=O)[C@](OC)(c2ccccc2)C(F)(F)F)[nH]1", "Measured Attribute": "pEC50", "Result": "5.30 to 6.00"}
{"Compound": "COc1ccc2c(c1)C(CC(=O)N1CCN(Cc3ccccc3)CC1c1ncc(-c3ccc4ccccc4c3)[nH]1)C(=O)N2 (stereo not drawn)", "Measured Attribute": "pEC50", "Result": "6.00 to 6.29"}
{"Compound": "Cc1csc(CC(=O)N2CCN(CC3CC3)CC2c2ncc(-c3ccc4ccccc4c3)[nH]2)n1 (stereo not drawn)", "Measured Attribute": "pEC50", "Result": "5.30 to 6.00"}
{"Compound": "O=C(Cc1c[nH]c2ncccc12)N1CCOCC1c1ncc(-c2ccc3ccccc3c2)[nH]1 (stereo not drawn)", "Measured Attribute": "pEC50", "Result": "5.30 to 6.00"}
{"Compound": "COc1ccc2nc(C)n(CC(=O)N3CCN(Cc4cn(C)nn4)C[C@H]3c3ncc(-c4cc5ccccc5nc4OC)[nH]3)c2c1", "Measured Attribute": "pEC50", "Result": "6.00 to 6.29"}
{"Compound": "COc1nc2ccccc2cc1-c1cnc(C2CN(C(=O)c3cnn(C(C)C)c3)CCN2C(=O)Cc2c(C)[nH]c3ccc(F)cc23)[nH]1 (stereo not drawn)", "Measured Attribute": "pEC50", "Result": "5.30 to 6.00"}
{"Compound": "COc1nc2ccccc2cc1-c1cnc(C2CN(CC3CCOC3)CCN2C(=O)Cc2cnc3ccccn23)[nH]1 (stereo not drawn)", "Measured Attribute": "pEC50", "Result": "5.30 to 6.00"}
{"Compound": "Cn1cc(CC(=O)N2CCN(Cc3ccccc3)CC2c2ncc(-c3ccc4ccccc4c3)[nH]2)c2ccccc21 (stereo not drawn)", "Measured Attribute": "pEC50", "Result": "5.30 to 6.00"}
{"Compound": "COc1nc2ccccc2cc1-c1cnc(C2CN(Cc3cc[n+]([O-])cc3)CCN2C(=O)Cc2c(C)[nH]c3ccc(F)cc23)[nH]1 (stereo not drawn)", "Measured Attribute": "pEC50", "Result": "5.30 to 6.00"}
{"Compound": "COc1ccc2nc(C(F)(F)F)n(CC(=O)N3CC[C@@H](N(C)Cc4ccn(C)n4)C[C@H]3c3ncc(-c4cc5ccccc5nc4OC)[nH]3)c2c1", "Measured Attribute": "pEC50", "Result": "> 7.00"}
{"Compound": "COc1ccc2nc(C)n(CC(=O)N3CC[C@H](NCc4ccn(C)n4)C[C@H]3c3ncc(-c4cc5ccccc5nc4OC)[nH]3)c2c1", "Measured Attribute": "pEC50", "Result": "5.30 to 6.00"}
{"Compound": "COc1nc2ccccc2cc1-c1cnc(C2CN(Cc3cccnc3)CCN2C(=O)Cc2c(C)[nH]c3ccc(F)cc23)[nH]1 (stereo not drawn)", "Measured Attribute": "pEC50", "Result": "6.30 to 7.00"}
{"Compound": "COc1ccc2nc(C(F)(F)F)n(CC(=O)N3CC[C@H](NCc4ccn(C)n4)C[C@H]3c3ncc(-c4cc5ccccc5nc4OC)[nH]3)c2c1", "Measured Attribute": "pEC50", "Result": "> 7.00"}
{"Compound": "COc1ccc2nc(C(F)(F)F)n(CC(=O)N3CC[C@H](NCc4cncn4C)C[C@H]3c3ncc(-c4cc5ccccc5nc4OC)[nH]3)c2c1", "Measured Attribute": "pEC50", "Result": "> 7.00"}
{"Compound": "COc1nc2ccccc2cc1-c1cnc([C@@H]2CN(CC3CCOC3)CCN2C(=O)Cn2cc(C(F)(F)F)nc2C)[nH]1 (stereo partly drawn)", "Measured Attribute": "pEC50", "Result": "5.30 to 6.00"}
